- protocol.description: Fraction unbound in human plasma
- Assay type: ADME, cell-free
observable: fraction unbound
Answers are plain numbers.

# input molecule: [11CH3]NC(=O)[C@@H](Cc1ccccc1F)CN1CCC2(CC1)OCCc1cc(F)sc12 ; wanted: its fraction unbound
0.11

* * *

- protocol.description: Fraction unbound in monkey plasma
- Assay type: ADME, cell-free, Macaca mulatta
- assay.setup: rhesus monkey
observable: fraction unbound
Give bare numbers.

# fraction unbound lookup, item [11CH3]NC(=O)[C@@H](Cc1ccccc1F)CN1CCC2(CC1)OCCc1cc(F)sc12
0.113

* * *

- protocol.description: Metabolic stability in monkey plasma for 0.5 hrs
- Assay type: ADME, cell-free, Macaca mulatta
- assay.setup: rhesus monkey, read-out: Stability
observable: remaining at 0.5 h (%)
One number for each entry, in %.

Would you kindly share the measured remaining at 0.5 h for [11CH3]NC(=O)[C@@H](Cc1ccccc1F)CN1CCC2(CC1)OCCc1cc(F)sc12 ?
99.9
